Reported melting point values for the following compounds.
MEASURED_PROPERTY: melting point

[[record]]
compound = "CC(C)(CNc1ccnc2cc(Cl)ccc12)NCc1cccc(Cl)c1"
result = "125 to 126 °C"

[[record]]
compound = "O=C1c2ccccc2C(=O)N1C(Cc1ccccc1)C[PH](=O)O (stereo not given)"
result = "127 to 130 °C"

[[record]]
compound = "COC(=O)c1cccc(-c2nnc(-c3ccc(N4CCOCC4)cc3)o2)c1"
result = "150 to 151 °C"

[[record]]
compound = "CC(C)N(C(=O)CCCCCC(=O)O)c1ccccc1"
result = "62 to 63 °C"

[[record]]
compound = "CN(C(=O)OC(C)(C)C)c1cc(Oc2ccc(-c3nnn(C(c4ccccc4)(c4ccccc4)c4ccccc4)n3)cc2)ccc1N"
result = "192 to 193 °C"

[[record]]
compound = "O=[N+]([O-])c1cccc2c(Br)nccc12"
result = "187 to 188 °C"

[[record]]
compound = "Nc1c(F)c(N2CC(n3cncn3)C2)c(F)c2c1c(=O)c(C(=O)O)cn2C1CC1"
result = "293 to 295 °C"

[[record]]
compound = "CCOC=Nc1sccc1C#N"
result = "38 °C"

[[record]]
compound = "Cc1cc([N+](=O)[O-])c(Cl)c([N+](=O)[O-])c1C(=O)O"
result = "189 to 192 °C"

[[record]]
compound = "COc1ccc(S(=O)(=O)N2CCc3cccc(-c4ccc(C(=O)O)cc4)c32)cc1"
result = "130 to 132 °C"

